# reported IC50; entries follow
Test system: E. coli V66 growth, OD600 absorbance, 18 h
Assay protocol: E. coli V66 viability reduction – absorbance, dose response, round 2, counter-screen for AddAB helicase-nuclease inhibitor project, late-stage follow-up (AID 651943)
The source made the active and inactive calls.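 How the source made its calls: active means bacterial viability inhibition with half-maximal concentration IC50 at or below 10 µM; inactive means the rest.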
Attribute measured: IC50

CCn1cc(C(=O)O)c(=O)c2cnc(N3CCN(C(=S)NC(=O)c4cccc(C)c4)CC3)nc21: > 39.5 µM (inactive)
CCn1cc(C(=O)O)c(=O)c2cnc(N3CCN(C(=S)Nc4ccc(Cl)cc4)CC3)nc21: > 39.5 µM (inactive)
CCn1cc(C(=O)O)c(=O)c2cnc(N3CCN(C(=S)NCc4ccccc4)CC3)nc21: > 119 µM (inactive)
CCn1cc(C(=O)O)c(=O)c2cnc(N3CCN(C(=S)Nc4ccccc4OC)CC3)nc21: > 119 µM (inactive)
CCn1cc(C(=O)O)c(=O)c2cnc(N3CCN(C(=S)Nc4cccc(C(F)(F)F)c4)CC3)nc21: 34.4 µM (inactive)
CCn1cc(C(=O)O)c(=O)c2cnc(N3CCN(C(=S)Nc4ccccc4F)CC3)nc21: > 119 µM (inactive)
